These entries and their values trace back to ChEMBL document CHEMBL1201862.

tested on: UACC-62; assay: NCI tumour cell line growth inhibition, 48 h
Calls of active or inactive are those of the source. Cut-off read from the data, not from the text of the source: active = GI50 up to about 1.1 µM and inactive = higher.
Use one of these outcomes when replying: active, inactive

Dear colleague, could you share the recorded outcome for `FC(F)(F)c1ccc2nc(NCc3ccccc3)c(-c3ccccc3)nc2c1` when you have a moment?
inactive

Called result for O=C1C2C(c3ccccc3)NC(c3ccccc3)C1C(c1ccccc1)NC2c1ccccc1 (configuration not stated)
inactive

Recorded call for `N#CC(C#N)=c1c2ccccc2c(=C(C#N)C#N)c2ccccc12` ?
inactive

Name the outcome recorded for CC(C)CCCC(C)[C@H]1CC[C@H]2N/C(=N/c3ccccc3)CCC[C@]12C (some centres not stated) in the assay.
inactive

What classification did `Cc1nc2c(cc1C(=O)N/N=C/c1ccc([N+](=O)[O-])cc1)c(=O)n(C)c(=O)n2C` end up with in this test?
inactive

Per the assay record, what outcome was assigned to `O=c1cc[nH]c(=O)[nH]1` ?
inactive

Test call for this molecule, please: `CCOc1ccc(O)cc1[P+](c1ccccc1)(c1ccccc1)c1ccccc1`
inactive

Hey, what did the test say about `CC(C)C(/C=C/c1ccc(Cl)cc1)=N\NC(=O)N/N=C(/C=C/c1ccc(Cl)cc1)C(C)C` ?
inactive

For `C/C(=N\NC(=S)N1CCCCCC1)c1ccccn1` , which call appears in the assay record?
active

====

test system: NCI-H460; assay: NCI tumour cell line growth inhibition, 48 h
Active and inactive are the calls of the source. Cut-off read from the data, not from the text of the source: active = GI50 up to about 1.1 µM and inactive = higher.
GI50: recorded values

Entry `O=C(CSCC(=O)N/N=C\c1ccc(F)cc1F)N/N=C\c1ccc(F)cc1F` under NCI-H460 had GI50 of > 100 µM (inactive)

# lookup: `O=C(NNc1nc(-c2ccccc2)cs1)Nc1ccccc1` on NCI-H460, GI50 = 24 µM (inactive)

Reported GI50 (NCI-H460) for entry `COc1ccc(/C=C/c2cc(OC)cc(=O)o2)cc1` is > 100 µM (inactive)

Short answer on NCI-H460 for `CN(C)CC/C(=N\Nc1c(F)c(F)c(F)c(F)c1F)c1ccccc1` , GI50: 28 µM (inactive)

Assay NCI-H460, sample CC(=O)OC1C[C@H]2C(OC(=O)c3ccccc3)C3C4(OC(C)=O)COC4C[C@H](OC(C)=O)[C@@]3(C)C(OC(C)=O)[C@H](OC(C)=O)C(=C1C)C2(C)C (stereo partly drawn) , GI50 read: 35.5 µM (inactive)

Reported NCI-H460 GI50 for item `NC(=S)Nc1nc(=S)[nH]c2[nH]ccc12` was > 100 µM (inactive)

Log: NCI-H460, compound CCN(CC)c1ccc(C2N3CCCCC3[C@@H]3c4[nH]c5ccccc5c4CCN23)cc1 (stereo partly drawn) , GI50 = 22.3 µM (inactive)

The compound `FC(F)(F)c1ccc2nc(NCc3ccccc3)c(-c3ccccc3)nc2c1` on NCI-H460: GI50 was 41 µM (inactive)

====

GI50 reference
tested on: SNB-19; test: NCI tumour cell line growth inhibition, 48 h
Calls of active or inactive are those of the source. Rule as the data show it: active = GI50 up to about 1.1 µM and inactive = higher.

Worked cases, GI50 given:
c1ccc(CSSSCc2ccccc2)cc1 [DIBENZYL TRISULFIDE] ... 15.3 µM (inactive)
CCOc1cc(-c2nc3ccccn3c2/N=C/c2cc(Br)ccc2O)ccc1O ... 21.3 µM (inactive)
CN(C)CCNC(=O)c1cc(NC(=O)c2cc(NC(=O)CC/C=C3/[C@@H]4CC[C@H]3N=N4)cn2C)cn1C ... > 100 µM (inactive)
CN1CN(c2ccccc2)C2(CCN(Cc3csc4ccccc34)CC2)C1=O ... 38.4 µM (inactive)
CN(C)c1nc(N(C)C)nc(N(C)CN(C)c2nc(N(C)C)nc(N(C)C)n2)n1 ... > 100 µM (inactive)

With those in mind, consider the next compound.
Record summary for `CC(=O)c1cccc(Nc2nc3ccccc3c3[nH]c4ccccc4c23)c1` : reported GI50 = 16.2 µM (inactive)

====

system: OVCAR-4; assay: NCI tumour cell line growth inhibition, 48 h
The source made the active and inactive calls. Rule as the data show it: active = GI50 up to about 1.1 µM and inactive = higher.
Pick one: active, inactive

Study these solved cases before continuing.
Nc1ncnc2c1ccn2C1OC2COP(=O)(O)OC2C1O (stereo not drawn) ... active
CC1CN1P1(N2CC2C)=NP(N2CC2C)(N2CC2C)=NP(N2CC2C)(N2CC2C)=N1 (stereo not drawn) ... inactive

Test call for this compound, please: `Cc1ccccc1Nc1nc(NNC(=O)Cc2ccccc2)nc(NNC(=O)c2ccncc2)n1`
inactive

====

system: K562; assay: NCI tumour cell line growth inhibition, 48 h
The source made the active and inactive calls. Rule as the data show it: active = GI50 up to about 1.1 µM and inactive = higher.
The reply should be one of these categories: active, inactive

CCOC(=O)Cn1nc2ccc(Nc3nc4ccccc4nc3C(=O)OCC)cc2n1 ... inactive
Oc1cc(Br)cc2cc(Cl)cnc12 ... active
CC1=[N+]([O-])C2(CCCC2)N(O)C1(C)C ... inactive

// outcome(item) with item = c1ccc(CSSSCc2ccccc2)cc1 [DIBENZYL TRISULFIDE]
active

Recorded test outcome, item `Cc1nc2c(cc1C(=O)N/N=C/c1ccc([N+](=O)[O-])cc1)c(=O)n(C)c(=O)n2C`
inactive

I would be grateful if you could indicate the recorded call for `O=C1/C(=C/c2ccccc2)CN(C(=O)/C=C/c2ccccc2)C/C1=C\c1ccccc1` .
inactive

====

Item-by-item account of GI50
tested on: HCT-116; test: NCI tumour cell line growth inhibition, 48 h
Activity calls are given as the source filed them. Rule as the data show it: active = GI50 up to about 1.1 µM and inactive = higher.

Consider the worked cases shown below.
CSc1cc(Cl)c(C)cc1S(=O)(=O)NC(=O)NNc1ccc(C)cc1 ... > 100 µM (inactive)
O[C@]12CCCC[C@H]1CCC2 ... > 100 µM (inactive)
C=C(CN(C)C)C(=O)c1ccc(C)cc1C ... 5.61 µM (inactive)

Documented GI50 of `CN1C2CC(=O)CC1[C@H](O)[C@@H]2O` : > 100 µM (inactive)

Entry CCN(CC)c1ccc(C2N3CCCCC3[C@@H]3c4[nH]c5ccccc5c4CCN23)cc1 (stereo partly specified) , GI50 reported as 16.1 µM (inactive)

In plain terms, `Cc1cc(S(=O)(=O)NC(=C(C#N)C#N)[n+]2ccc(N(C)C)cc2)c([S-])cc1Cl` has a documented GI50 of > 100 µM (inactive)

====

tested on: MOLT-4; experiment: NCI tumour cell line growth inhibition, 48 h
The source made the active and inactive calls. Rule as the data show it: active = GI50 up to about 1.1 µM and inactive = higher.
Your reply should match one of these outcome classes. Y = active, N = inactive

OC1CC(O)O[C@H](c2ccccc2)C1 (some centres not stated) ... N
Oc1cc(Br)cc2cc(Cl)cnc12 ... N
CCOC(=O)[C@H]1Nc2ccc(Cl)cc2[C@H]2CCC[C@@H]12 ... N

Which result was noted for this compound in the test: O=C1OC(C2Cc3ccc4c(c3C2=O)CCCC4)c2ccccc21 (configuration not stated)
N

Check the results log: what was the call for `O=C1/C(=C/c2ccccc2)CN(C(=O)/C=C/c2ccccc2)C/C1=C\c1ccccc1` ?
N

Could you check what this test reported for `CC(C)OC(=O)NNc1cc(Cl)ccc1Cl` ?
Y

Any idea what this test logged for `N#Cc1c(C#N)c(-c2cccc([N+](=O)[O-])c2)n(-c2ccccc2)c1N` ?
N

Call for entry O=c1c2ncn(C3CC(O)C(CO)O3)c2nnn1Cc1ccccc1[N+](=O)[O-] (configuration not stated) :
N

====

test system: NCI-H522; assay: NCI tumour cell line growth inhibition, 48 h
Calls of active or inactive are those of the source. No stated cut-off is given here; in the data, active = GI50 up to about 1.1 µM and inactive = higher.
Bench note: report the call from YES (active), NO (inactive)

Consider the worked cases shown below.
COC(=O)c1ccccc1/C=C1\Cc2cc(C)cc(C)c2C1=O ... NO
Cn1c2c(c3c(=O)[nH]ncc31)CCc1ccccc1-2 ... NO

How did this test come out for Nc1nc(Cl)cc(NCC2(CO)CC(CCCCc3ccccc3)C2)n1 (stereo not given) ?
NO

Test call for this compound, please: `N#Cc1c(C#N)c(-c2cccc([N+](=O)[O-])c2)n(-c2ccccc2)c1N`
NO

Recorded test call requested for `O=C1C=CC(=O)c2c1cc([N+](=O)[O-])c1ccoc21`
NO

Per the records of this test, what outcome belongs to COc1ccc(C2Oc3c(cccc3OC)C=C2[N+](=O)[O-])cc1OC (stereo not given) ?
NO

====

system: SF-539; assay: NCI tumour cell line growth inhibition, 48 h
Active and inactive are the calls of the source. No stated cut-off is given here; in the data, active = GI50 up to about 1.1 µM and inactive = higher.
Entry note: the call must match one of active, inactive

Cc1ccc(C)n2c1nc1ccccc12 ... inactive

Could you kindly confirm the outcome this assay logged for CC1OC1C(=O)C1(O)C(C)C(O)C23OC2(C(O)c2c(O)cccc2C3=O)C1O (stereo not drawn) ?
active

====

tested on: NCI-H23; test: NCI tumour cell line growth inhibition, 48 h
Calls of active or inactive are those of the source. Cut-off read from the data, not from the text of the source: active = GI50 up to about 1.1 µM and inactive = higher.
Thanks in advance; please answer with one of these: active, inactive

Observe how each entry below is paired with its result.
O=c1ncc(F)cn1C1OC(CO)C(O)C1O (centres undefined) ... inactive
O=C1OC(C2Cc3ccc4c(c3C2=O)CCCC4)c2ccccc21 (centres undefined) ... inactive
O=C(O)C12CCC(CC1=O)C2 (centres undefined) ... inactive
CN1C2CCC1C(CO)C(=O)C2 (centres undefined) ... inactive
COC1=CC(=O)C2C(C1=O)[C@@H]1c3ccccc3OC(C)(C)[C@H]21 (some centres undefined) ... inactive

What did this assay record as the result for `Cc1c(C(=O)CSc2nc3cc([N+](=O)[O-])ccc3[nH]2)c(=O)n(-c2ccccc2)n1C` ?
inactive
